Tested on: DIV30
Experiment: qHTS profiling for inhibitors of Plasmodium falciparum proliferation (AID 504749); also: nearly all actives have a fitted effect of over 60% in size; also: potency is read from the fitted curve at half-maximal effect
Conditions: P. falciparum in erythrocytes, SYBR Green DNA, 72 h; series mostly up to 12.8 µM
Method: NIH National Institute of Allergy and Infectious Diseases [NIAID] NIH Chemical Genomics Center [NCGC] […] Because mature erythrocytes lack DNA, only Plasmodium-derived DNA is detected. NCGC Assay Protocol Summary: The SYBR Green viability assay was adapted from a method described previously (Plouffe et al., 2008). […] The following morning, fluorescence intensity at 485(14) nm excitation and 535(25) nm emission wavelengths was measured on an EnVision (Perkin Elmer) plate reader. […]
Records with an inconclusive call do not appear. The source made the active and inactive calls. Calls follow the shape of the dose curve; as a rule, active = well fitted inhibition curve with a large enough effect; inconclusive = small, poorly fitted or top-dose-only effect; inactive = flat fitted curve, though single readings scatter.
quantity_name: Potency

See these solved cases before continuing.
CO/N=C(/C(=O)NC1C(=O)N2C(C(=O)O)=C(CSc3nc(=O)c(O)nn3C)CSC12)c1csc(N)n1 (stereo unspecified)	inactive
C[C@@H]1COc2c(N3CCN(C)CC3)c(F)cc3c(=O)c(C(=O)O)cn1c23	inactive
CN[C@@H]1[C@H](O[C@@H]2O[C@H](CO)[C@@H](N)[C@H](O)[C@@H]2O)O[C@H]2C[C@@H](N)[C@@H](O[C@H]3[C@@H](O)[C@H](O)[C@H](N)C[C@@H]3N)O[C@H]2[C@H]1O	inactive
CN(C)[C@@H]1C(=O)C(C(N)=O)=C(O)[C@]2(O)C(=O)C3=C(O)c4c(O)ccc(Cl)c4[C@H](O)[C@H]3C[C@@H]12	inactive
CN(N=O)C(=O)N[C@H]1[C@@H](O)[C@H](O)[C@H](CO)O[C@@H]1O	inactive

In the following, a different compound is considered.
Look at this compound and give its reported Potency. NC(=O)c1cc[n+](CC2=C(C(=O)O)N3C(=O)[C@@H](NC(=O)[C@H](c4ccccc4)S(=O)(=O)[O-])[C@@H]3SC2)cc1
2.28 µM (active)

----------
assay: NFAT Signaling Pathway (AID 444); conditions: Jurkat NFAT-bla M1, carbachol, beta-lactamase ratio, 5 h; at 7.69 µM (top of the series) unless noted;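 also: carbachol stimulus at about its EC50 of 1 µM final; % is scaled to controls: 0 for no effect and ±100 for the full control effect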
Records with an inconclusive call do not appear. The source made the active and inactive calls. Calls follow the shape of the dose curve; as a rule, active = well fitted curve in either direction with a large enough effect (not every such curve was filed as active); inconclusive = small, poorly fitted or top-dose-only effect, or another doubt; inactive = flat fitted curve, though single readings scatter.
quantity_name: activity change, negative = inhibition

COc1ccc2[nH]cc(CCNc3ccnc(-c4c(C)noc4C)n3)c2c1	9.64% (inactive)
COC(=O)N1CCC2(CCN(C(=O)Nc3cccc(C#N)c3)CC2)CC1	4.12% (inactive)
CN(C)Cc1ccccc1-c1nccc(NCc2cccs2)n1	-11.6% (inactive)
COc1ccc(NC(=O)N2CCCC3(CCN(C(=O)c4ccc(OC)cc4)CC3)C2)cc1	0.394% (inactive)
c1cncc(-c2cc(NCc3cccs3)ncn2)c1	11.4% (inactive)
Cc1nc2cnc(Nc3ccccc3)nc2n(Cc2cccs2)c1=O	31.1% (inactive)
COc1ccc(Oc2ncc3nc(C)c(=O)n(CCc4ccccc4)c3n2)cc1	0.509% (inactive)
CCNc1ncc2nc(-c3cccc(C#N)c3)c(=O)n(Cc3cccc(OC)c3)c2n1	-14.9% (inactive)

Required: activity change, negative = inhibition, one value per compound below.
1. O=C(Nc1ccccc1)N1CCCC2(CCN(C(=O)c3csnn3)CC2)C1
2. COc1cccc(-c2ccc3ncnc(N(C)C)c3c2)c1
3. O=C(c1cnccn1)N1CCC[C@@]2(CCN(Cc3ccncc3)C2)C1

-7.97% (inactive)
27.5% (inactive)
7.13% (inactive)

Required: activity change, negative = inhibition, one value per compound below.
1. COc1ncc2nc(-c3cn(C)c4ccccc34)c(=O)n(CCc3ccccc3)c2n1
2. CS(=O)(=O)N1CCC[C@@]2(CCN(C(=O)Nc3cccc(C#N)c3)C2)C1
3. Cc1noc(C)c1-c1nccc(N(C)C)n1
4. CN(C)C(=O)c1ccc(-c2nc(N(C)Cc3ccco3)c3ccccc3n2)cc1
5. CCNc1ncc2nc(-c3cn(C)c4ccccc34)c(=O)n(CCC#N)c2n1

["-1.31% (inactive)", "9.12% (inactive)", "-4.83% (inactive)", "18.1% (inactive)", "-4.28% (inactive)"]
